Reference source for all entries: ChEMBL document CHEMBL4196202

measurement_target: Son of sevenless homolog 1 (Homo sapiens)
test: Activation of SOS1 in human NCI-H727 cells expressing KRAS G12V mutant assessed as induction of ERK1/2 T202/Y204 phosphorylation incubated for 30 mins by In-cell Western assay
Assay type: cell-based
measurement_name: EC50 (µM)
Give bare numbers, in µM.

Examples with their reported EC50 follow.
• Cc1ncncc1-c1cc(Cl)cc2c1nc(N1CC3(CNC3)C1)n2Cc1ccc(F)cc1 = 42.5
• Fc1ccc(Cn2c(N3CCNCC3)nc3ccccc32)cc1Cl = 51.4
• Cc1cc(Cn2c(N3CC4(CNC4)C3)nc3c(-c4cncnc4C)cc(Cl)cc32)cc(C)c1F = 15.7
• Cc1cc(Cn2c(N3CC4(CNC4)C3)nc3c(-c4ccccc4Cl)cc(Cl)cc32)cc(C)c1F = 19.7
• Cc1nc(N)ncc1-c1cc(Cl)cc2c1nc(N1CC3(CNC3)C1)n2Cc1ccc(F)cc1 = 27.5
• Cc1cc(Cn2c(N3CCNCC3)nc3c(-c4cncnc4C)cc(Cl)cc32)cc(C)c1F = 14.5
• Cc1cc(Cn2c(N3CCNCC3)nc3c(-c4cncnc4C(C)C)cc(Cl)cc32)cc(C)c1F = 13.9
• Cc1cc(Cn2c(N3CC4(CNC4)C3)nc3c(-c4cnc(N)nc4C)cc(Cl)cc32)cc(C)c1F = 13.4

Could you now consider this next compound?
Can you share its EC50? I mean this compound: Cc1cc(Cn2c(N3CCNCC3)nc3c(-c4ccccc4Cl)cc(Cl)cc32)cc(C)c1F
36.8

====

measurement_target: Son of sevenless homolog 1 (Homo sapiens)
Sequence (whole entry): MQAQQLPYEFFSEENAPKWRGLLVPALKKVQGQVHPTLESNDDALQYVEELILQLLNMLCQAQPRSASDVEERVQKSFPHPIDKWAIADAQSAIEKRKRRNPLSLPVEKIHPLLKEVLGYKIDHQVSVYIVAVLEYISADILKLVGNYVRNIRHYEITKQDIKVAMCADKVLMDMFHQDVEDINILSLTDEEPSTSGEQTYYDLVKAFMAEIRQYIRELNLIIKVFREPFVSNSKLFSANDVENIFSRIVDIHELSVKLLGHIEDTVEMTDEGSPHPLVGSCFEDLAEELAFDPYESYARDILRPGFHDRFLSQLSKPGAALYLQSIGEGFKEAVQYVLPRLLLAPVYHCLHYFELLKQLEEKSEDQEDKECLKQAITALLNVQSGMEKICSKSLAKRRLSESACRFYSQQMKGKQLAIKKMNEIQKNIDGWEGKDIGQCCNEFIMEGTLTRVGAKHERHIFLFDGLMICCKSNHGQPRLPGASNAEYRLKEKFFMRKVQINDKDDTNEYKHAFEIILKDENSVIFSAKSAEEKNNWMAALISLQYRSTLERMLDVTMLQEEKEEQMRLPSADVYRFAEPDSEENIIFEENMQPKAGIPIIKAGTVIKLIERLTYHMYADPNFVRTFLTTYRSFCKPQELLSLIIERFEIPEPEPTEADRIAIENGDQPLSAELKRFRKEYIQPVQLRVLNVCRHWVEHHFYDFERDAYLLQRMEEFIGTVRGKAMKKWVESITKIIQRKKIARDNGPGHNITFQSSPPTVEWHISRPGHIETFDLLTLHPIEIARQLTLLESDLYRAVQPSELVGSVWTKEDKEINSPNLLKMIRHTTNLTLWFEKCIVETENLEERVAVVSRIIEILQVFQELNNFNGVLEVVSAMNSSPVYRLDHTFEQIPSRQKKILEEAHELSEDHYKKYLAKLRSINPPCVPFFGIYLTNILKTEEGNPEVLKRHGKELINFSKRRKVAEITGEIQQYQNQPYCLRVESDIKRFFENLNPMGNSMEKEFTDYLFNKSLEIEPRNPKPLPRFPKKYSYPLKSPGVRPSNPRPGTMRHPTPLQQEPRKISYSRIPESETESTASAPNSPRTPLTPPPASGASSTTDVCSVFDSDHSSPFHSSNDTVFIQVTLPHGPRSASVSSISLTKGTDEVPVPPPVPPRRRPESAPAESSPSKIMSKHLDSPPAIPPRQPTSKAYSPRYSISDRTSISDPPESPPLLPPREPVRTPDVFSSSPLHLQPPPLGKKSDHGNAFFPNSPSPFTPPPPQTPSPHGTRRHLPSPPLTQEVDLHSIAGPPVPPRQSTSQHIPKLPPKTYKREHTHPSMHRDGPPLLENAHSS
test: Biphasic activity at of SOS1 in human HeLa cells expressing wild type KRAS assessed as reduction in ERK1/2 T202/Y204 phosphorylation at 1.5 to 100 uM (higher range) incubated for 30 mins by In-cell Western assay
Assay type: cell-based
Active and inactive are the calls of the source. The rule behind the calls is not given here.
Your answer must be one of the following: active, inactive

Would you please look over these solved cases?
* Cc1ncncc1-c1cc(Cl)cc2c1nc(N1CC3(CNC3)C1)n2Cc1ccc(F)cc1 | inactive
* Cc1cc(Cn2c(N3CC4(CNC4)C3)nc3c(-c4c(C)n[nH]c4C)cc(Cl)cc32)cc(C)c1F | active
* Fc1ccc(Cn2c(N3CCNCC3)nc3ccccc32)cc1Cl | inactive
* Cc1cc(Cn2c(N3CC4(CNC4)C3)nc3c(-c4cncnc4C)cc(Cl)cc32)cc(C)c1F | active
* Cc1cc(Cn2c(N3CCNCC3)nc3c(-c4cncnc4C)cc(Cl)cc32)cc(C)c1F | active

Attention now turns to another entry.
What did the test return for Cc1nc(N)ncc1-c1cc(Cl)cc2c1nc(N1CC3(CNC3)C1)n2Cc1ccc(F)cc1 ?
active

====

measurement_target: Son of sevenless homolog 1 (Homo sapiens) (UniProt Q07889)
Sequence (whole entry): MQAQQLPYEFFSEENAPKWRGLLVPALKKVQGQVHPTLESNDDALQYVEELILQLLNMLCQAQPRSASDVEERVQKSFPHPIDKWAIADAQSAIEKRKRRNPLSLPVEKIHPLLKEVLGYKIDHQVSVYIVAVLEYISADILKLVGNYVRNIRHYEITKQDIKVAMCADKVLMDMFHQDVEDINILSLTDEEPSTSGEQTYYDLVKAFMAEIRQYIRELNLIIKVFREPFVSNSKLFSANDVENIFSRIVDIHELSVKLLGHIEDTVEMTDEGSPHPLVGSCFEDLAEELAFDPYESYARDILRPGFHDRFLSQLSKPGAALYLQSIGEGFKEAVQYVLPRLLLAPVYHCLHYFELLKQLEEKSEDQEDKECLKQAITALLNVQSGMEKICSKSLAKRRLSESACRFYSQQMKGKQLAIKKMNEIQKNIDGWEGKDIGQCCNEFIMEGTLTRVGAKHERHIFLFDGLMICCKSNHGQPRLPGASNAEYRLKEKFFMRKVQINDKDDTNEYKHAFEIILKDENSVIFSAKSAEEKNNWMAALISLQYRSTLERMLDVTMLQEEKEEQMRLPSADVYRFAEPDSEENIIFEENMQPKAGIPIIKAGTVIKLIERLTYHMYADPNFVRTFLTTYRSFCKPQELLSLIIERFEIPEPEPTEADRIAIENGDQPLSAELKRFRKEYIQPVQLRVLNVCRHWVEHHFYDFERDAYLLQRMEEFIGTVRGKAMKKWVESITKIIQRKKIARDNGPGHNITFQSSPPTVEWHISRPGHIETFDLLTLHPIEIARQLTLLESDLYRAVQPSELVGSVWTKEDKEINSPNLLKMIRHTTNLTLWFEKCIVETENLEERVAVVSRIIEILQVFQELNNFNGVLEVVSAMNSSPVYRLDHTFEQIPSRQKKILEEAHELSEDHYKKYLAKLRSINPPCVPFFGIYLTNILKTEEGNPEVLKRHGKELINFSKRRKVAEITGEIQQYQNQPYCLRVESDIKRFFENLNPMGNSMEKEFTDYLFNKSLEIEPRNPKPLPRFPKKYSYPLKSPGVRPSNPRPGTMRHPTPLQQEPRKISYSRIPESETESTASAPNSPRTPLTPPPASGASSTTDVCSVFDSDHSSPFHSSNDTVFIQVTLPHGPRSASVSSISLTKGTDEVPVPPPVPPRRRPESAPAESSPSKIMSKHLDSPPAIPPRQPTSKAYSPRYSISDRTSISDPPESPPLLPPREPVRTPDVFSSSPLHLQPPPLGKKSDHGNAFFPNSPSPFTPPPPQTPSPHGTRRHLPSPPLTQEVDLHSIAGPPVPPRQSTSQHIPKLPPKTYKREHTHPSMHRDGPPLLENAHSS
test: Activation of SOS1 in human NCI-H727 cells expressing KRAS G12V mutant assessed as induction of ERK1/2 T202/Y204 phosphorylation at 1.5 to 100 uM (higher range) incubated for 30 mins by In-cell Western assay
Format: cell-based
Active and inactive are the calls of the source. The rule behind the calls is not given here.
Answer with one of the outcomes given here: class 1 for active, class 0 for inactive

• Fc1ccc(Cn2c(N3CCNCC3)nc3ccccc32)cc1Cl = class 0
• Cc1cc(Cn2c(N3CCNCC3)nc3c(-c4cncnc4C(C)C)cc(Cl)cc32)cc(C)c1F = class 1

Hi team, can someone confirm the assay call for Cc1cc(Cn2c(N3CCNCC3)nc3ccc(Cl)cc32)cc(C)c1F ?
class 1

Repeat for the following molecule: Cc1cc(Cn2c(N3CCNCC3)nc3c(N4CCN(C)CC4)cc(Cl)cc32)cc(C)c1F
class 1

Also need Cc1cc(Cn2c(N3CCNCC3)nc3c(-c4cncnc4C)cc(Cl)cc32)cc(C)c1F , thanks.
class 1

Can you check Cc1cc(Cn2c(N3CC4(CNC4)C3)nc3c(-c4cnc(N)nc4C)cc(Cl)cc32)cc(C)c1F next?
class 1

Follow-up entry: Cc1cc2nc(N3CCNCC3)n(Cc3ccc(F)c(Cl)c3)c2cc1C
class 1

What do you get for Cc1cc(Cn2c(N3CC4(CNC4)C3)nc3c(N4CCN(C)CC4)cc(Cl)cc32)cc(C)c1F ?
class 1

Note, next up: Cc1cc(Cn2c(N3CC4(CNC4)C3)nc3c(-c4ccccc4Cl)cc(Cl)cc32)cc(C)c1F
class 1
